# Tested on: HCC827-YVMA cells (human ERBB2 exon20 insertion mutant A775_G776ins YVMA)
# PROTOCOL DESCRIPTION: Cell growth inhibition (CellTiter-Glo, 3 days) in HCC827-YVMA
# Format: cell-based
# APPLIED CONDITIONS: 72 h, 3 days after administration
# Method: 1. Preparation of HCC827-SVD, HCC827-ASV and HCC827-YVMA Cell Lines […] HCC827(ATCC), HCC827-SVD, HCC827-ASV, HCC827-YVMA were seeded in 96-well plates at 5000 cells/well in 90 μl of RPMI growth medium containing 10% FBS and 1% Penicillin Streptomycin. […] The plates were then incubated at room temperature for 10 minutes and luminescence was recorded by EnSpire plate reader (PerkinElmer).
EXPERIMENTAL READOUT: GI50

Completed entries (count: 3):
[
  {
    "COMPOUND": "C=CC(=O)N1CCC(Nc2cc3c(Nc4ccc(Oc5ccn(-c6ccc(C)cn6)n5)cc4F)ncnc3cc2OC)CC1",
    "TESTED TARGET": "HCC827-YVMA cells (human ERBB2 exon20 insertion mutant A775_G776ins YVMA)",
    "GI50": "60 to 100 nM"
  },
  {
    "COMPOUND": "C=CC(=O)N1CCC(Nc2cc3c(Nc4ccc(Oc5ccnc(N6CC(C(N)=O)C6)c5)cc4F)ncnc3cc2OC)CC1",
    "TESTED TARGET": "HCC827-YVMA cells (human ERBB2 exon20 insertion mutant A775_G776ins YVMA)",
    "GI50": "≥ 1000 nM"
  },
  {
    "COMPOUND": "C=CC(=O)N1CCC(Nc2cc3c(Nc4ccc(Oc5ccnc(N6CC7CN(C)CC7C6)c5)cc4F)ncnc3cc2OC)CC1 (stereo not shown)",
    "TESTED TARGET": "HCC827-YVMA cells (human ERBB2 exon20 insertion mutant A775_G776ins YVMA)",
    "GI50": "300 to 600 nM"
  }
]

Given C=CC(=O)N1CCC(Nc2cc3c(Nc4ccc(Oc5ccnc(N6CCO[C@H](CO)C6)c5)cc4F)ncnc3cc2OC)CC1 , state its recorded GI50.
100 to 300 nM

Given C=CC(=O)N1CCC(Nc2cc3c(Nc4ccc(Oc5ccnc(N6CC7C(C6)C7(F)F)c5)cc4F)ncnc3cc2OC)CC1 (stereo not shown) , state its recorded GI50.
< 30 nM

Given C=CC(=O)N1CCC(Nc2cc3c(Nc4ccc(Oc5ccnc(N6CC[C@H](C)C6)c5)cc4F)ncnc3cc2OC)CC1 , state its recorded GI50.
< 30 nM

Given C=CC(=O)N1CCC(Nc2cc3c(Nc4ccc(Oc5ccnc(N6CC(COC)C6)c5)cc4F)ncnc3cc2OC)CC1 , state its recorded GI50.
< 30 nM
